Data provenance: patent US4607114A

Values of Solubility in water strictly less than 5 mg/mL map to MET, and values of at least 5 mg/mL map to NOT MET.

CCC1C(=O)[O][Pt]2([NH]CC(CC)(CC)[NH]2)[O]C1=O (stereo not shown) [compound 9] ... NOT MET
CCC(C)(N)CN.[Cl][Pt][Cl] (stereo not shown) [compound 4] ... MET
CCC(N)(CC)CN.O=C([O-])C(O)C(=O)[O-].[Pt+2] [compound 10] ... NOT MET

Consider now this further molecule.
Criterion: Solubility in water strictly below 5 mg/mL. Is it met by [Cl][Pt]1([Cl])([Cl])([Cl])[NH]CC2(CCCC2)[NH]1 [compound 20] ?
NOT MET

###

For each of the compounds below, state its Solubility in water.
Answers are plain numbers, in µg/mL.

CC1(C)C[NH][Pt]([Cl])([Cl])[NH]1 ... 5000

Given the entry NCC1(N)CCCC1.O=C([O-])C(O)C(=O)[O-].[Pt+2] , report its measured Solubility in water.
5000
